Reference source for all entries: ChEMBL document CHEMBL2086265

# Test system: Helicobacter pylori
# measurement.notes: Ratio of MIC for wild type Helicobacter pylori 055 to MIC for AcrAB-TolC efflux pump-dificient Helicobacter pylori
parameter.measured: Ratio

Use these answered entries as a reference point.
molecule | parameter.measured | experimental.result
CC(C)n1c(=O)c2c(-c3cc(C#N)cn3C)n(Cc3ccnc4ccc(Cl)cc34)nc2n(CC2CC2)c1=O | Ratio | <=2
C#CC(C)n1c(=O)c2c(-c3cc(C#N)cn3C)n(Cc3ccnc4ccc(Cl)cc34)nc2n(CC2CC2)c1=O (stereo unspecified) | Ratio | <=2
CCn1c(=O)c2c(-c3nc(C#N)cn3C)n(Cc3ccnc4ccc(Cl)cc34)nc2n(CC2CC2)c1=O | Ratio | <=2
CC#CCn1c(=O)c2c(-c3cc(C#N)cn3C)n(Cc3ccnc4ccc(Cl)cc34)nc2n(CC2CC2)c1=O | Ratio | <=2
CCn1c(=O)c2c(-c3cc(C#N)cn3C)n(Cc3ccnc4ccc(Cl)cc34)nc2n(CC2CC2)c1=O | Ratio | <=2

Working through the 6 molecules below one at a time, give Ratio for each.
1. CC(C)n1c(=O)c2c(-c3cncn3C)n(Cc3ccnc4ccc(Cl)cc34)nc2n(CC2CC2)c1=O
2. Cc1oc(C#N)cc1-c1c2c(=O)n(C)c(=O)n(CC3CC3)c2nn1Cc1ccnc2ccc(Cl)cc12
3. C#CCn1c(=O)c2c(-c3nc(C#N)cn3C)n(Cc3ccnc4ccc(Cl)cc34)nc2n(CC2CC2)c1=O
4. C#CC(C)n1c(=O)c2c(-c3cncn3C)n(Cc3ccnc4ccc(Cl)cc34)nc2n(CC2CC2)c1=O (stereo unspecified)
5. Cn1cc(C#N)cc1-c1c2c(=O)n(C)c(=O)n(CC3CC3)c2nn1Cc1ccnc2ccc(Cl)cc12
6. Cn1cc(C#N)nc1-c1c2c(=O)n(CC3CC3)c(=O)n(CC3CC3)c2nn1Cc1ccnc2ccc(Cl)cc12

Given back:
1. <=2
2. <=2
3. <=2
4. <=2
5. <=2
6. <=2

Each molecule below has a reported value. Please supply its Ratio.
1. C=CCn1c(=O)c2c(-c3cncn3C)n(Cc3ccnc4ccc(Cl)cc34)nc2n(CC2CC2)c1=O
2. C=CCn1c(=O)c2c(-c3cc(C#N)cn3C)n(Cc3ccnc4ccc(Cl)cc34)nc2n(CC2CC2)c1=O
3. C#CCn1c(=O)c2c(-c3cc(C#N)cn3C)n(Cc3ccnc4ccc(Cl)cc34)nc2n(CC2CC2)c1=O
4. Cn1cncc1-c1c2c(=O)n(CC3CC3)c(=O)n(CC3CC3)c2nn1Cc1ccnc2ccc(Cl)cc12
5. C=CCn1c(=O)c2c(-c3nc(C#N)cn3C)n(Cc3ccnc4ccc(Cl)cc34)nc2n(CC2CC2)c1=O

Given back:
<=2
<=2
<=2
<=2
<=2
